All values here come from ChEMBL document CHEMBL1201862.

System: MDA-N
Experiment: NCI tumour cell line growth inhibition, 48 h
Active and inactive are the calls of the source. Cut-off read from the data, not from the text of the source: active = GI50 up to about 1.1 µM and inactive = higher.
Possible outcomes: y for active, n for inactive

Cn1nc2c(c1N)Cc1c(nn(C)c1N)-c1ccccc1-2 :: n
C=CCC(NCc1ccccc1)[C@H](OCc1ccccc1)[C@@H]1COC(C)(C)O1 (stereo partly drawn) :: n
O=C(CCN1CCCCC1)Nc1ccc2sc3ccccc3c(=O)c2n1 :: n
CN(C)/C=C1\CCc2ccc([N+](=O)[O-])cc2C1=O :: n
Cc1cc(=O)c2ccccc2n1CCCCCCCCCCn1c(C)cc(=O)c2ccccc21 :: n
Nc1ccc(Oc2ccc(C34CC5CC(C3)CC(c3ccc(Oc6ccc(N)c(O)c6)cc3)(C5)C4)cc2)cc1O :: n
Cc1cc(-c2c(Br)cc(C(=O)O)n2C)on1 :: n
NC(=O)SCC(=O)Nc1ccc2cccc3c2c1CC3 :: n
N/C(COc1ccc(Cl)cc1)=N\NC(=O)c1ccncc1 :: n
CCOC(=O)NC(Nc1ccc(C(=O)OCC)cc1)(C(F)(F)F)C(F)(F)F :: n
CCN1C(NN)=NS(=O)(=O)c2ccccc21 :: n
O=C1C=C(NCCc2cc(Br)c(O)c(Br)c2)C(=O)c2[nH]cnc21 :: n
COc1ccc(C[N+](C)(C)N)cc1OC :: n
COC(=O)C1=C(C)C(=O)[C@]23C(CCCC[C@H]12)C(=O)[C@H](C(=O)OC)C3C (stereo partly drawn) :: n
Cc1nc(O)nc2nc3ccc(Cl)cc3c(NCCNCCO)c12 :: n
CC1(C)OCC(C2OC(N3O[C@H](CI)C[C@@H]3c3ccccc3)C3OC(C)(C)OC23)O1 (stereo partly drawn) :: n
S=C1SC(=N\c2ccccc2)/C(=N/c2ccccc2)N1c1ccc2ccccc2c1 :: n
COC(=O)c1cn(CCCC(=O)O)nn1 :: n
CC/C(=N/O)c1ccc(Br)s1 :: n
NS(=O)(=O)c1ccc(/N=N/c2nc3nc(O)nc(O)c3[nH]2)cc1 :: n
CC1(C)N=C(N)N=C(N)N1c1ccc(CCCCc2ccc(Cl)cc2Cl)cc1 :: y
Sc1ncnc2nc[nH]c12 [MERCAPTOPURINE ANHYDROUS] :: n
C[C@H]1SC(c2ccc(Cl)cc2Cl)N(NC(=O)c2ccncc2)C1=O (stereo partly drawn) :: n

* * *

Test system: M14
Assay: NCI tumour cell line growth inhibition, 48 h
Calls of active or inactive are those of the source. Rule as the data show it: active = GI50 up to about 1.1 µM and inactive = higher.
readout.label: GI50

CC(C)C/N=C(\N)N=C(N)N :: > 100 µM (inactive)
CC(=O)OCC1OC(N2C(=O)[C@@H](Oc3ccccc3)[C@H]2/C=C/c2ccccc2)C(OC(C)=O)C(OC(C)=O)C1OC(C)=O (stereo not given in full) :: > 100 µM (inactive)
COc1ccc2c(C(=O)c3cn(CCN4CCOCC4)c4ccccc34)cccc2c1 :: > 31.1 µM (inactive)
Nc1ncnc2c1ncn2CCCNO :: > 100 µM (inactive)
COC(=O)C[C@H](CCSC)NC(=O)C[C@H](CCSC)NC(=O)C[C@H](CCSC)NC(=O)OC(C)(C)C :: 57.5 µM (inactive)
O=C1CC(n2ccnc2)c2c(Cl)sc(Cl)c21 (stereo not given) :: 15.3 µM (inactive)
CCOC(=O)Nc1cc2c(c(N)n1)N=C(c1ccc(OC)cc1)CN2 :: 0.000309 µM (active)
Nc1ncnc2c1cnn2Cc1cn(COCC(O)CO)nn1 (stereo not given) :: > 100 µM (inactive)
CCOC(=O)Cc1ccc(Nc2nc3cc(C(F)(F)F)ccc3nc2C(=O)OCC)cc1 :: > 100 µM (inactive)
O=C(CC(=O)N1N=C(c2ccccc2)C(/N=N/c2ccc(Cl)cc2)C1=O)Nc1ccccc1Cl (stereo not given) :: 28.1 µM (inactive)
